System: Plasmodium berghei
METHOD_DESCRIPTION: Screen against P. berghei liver stage (PbLuc), transformed with Luciferase, at 10uM
Type: functional, HepG2
CONDITION_NOTES: tested at 10 uM
The whole screen tested about 69,000 compounds, of which about 8,600 (12%) showed an effect of 50% or more. Shown is part of a subset that was picked to be rich in strong results.
PROPERTY_LABEL: INHIBITION (%)

INSERT INTO measurements (compound, tgt, recorded_number) VALUES
  ('O=C(c1ccco1)N1CCO[C@@H]2CN(Cc3nccs3)CC[C@@H]2C1', 'Plasmodium berghei', -5.89),
  ('O=C(CCO)N1CC[C@@H]2CN(C(=O)c3ccco3)CCO[C@@H]2C1', 'Plasmodium berghei', 80),
  ('Cn1cc(CCNCc2cc(Cl)c3c(c2)OCCO3)cn1', 'Plasmodium berghei', -9.4),
  ('NC(=O)C1CCN(C(=O)NC2CCN(CC3CCCC3)C2)CC1 (stereo not given)', 'Plasmodium berghei', 7.83),
  ('CN(C)CCO[C@H]1CN(Cc2ccco2)[C@@H]2COC[C@H]12', 'Plasmodium berghei', 30.3),
  ('O=C(c1ccco1)N1CCO[C@@H]2CN(c3ncc(F)cn3)CC[C@@H]2C1', 'Plasmodium berghei', 42.6),
  ('O=C(c1ccco1)N1CCO[C@@H]2CN(c3ccccc3)CC[C@@H]2C1', 'Plasmodium berghei', 84.7),
  ('O=C(NC1CCN(CC2CCCC2)C1)N1CCC(OCC2CC2)CC1 (stereo not given)', 'Plasmodium berghei', 39.7),
  ('CC(C)c1nn(C)c(N(C)C)c1CNCCC(=O)N(C)C', 'Plasmodium berghei', 3.19),
  ('O=C(NC1CCN(CC2CC2)C1)N1CCC(OC2CCCCC2)CC1 (stereo not given)', 'Plasmodium berghei', 74);
